# Test system: Human adipose tissue derived stem cells (hADSCs)
# PROCEDURE DETAILS: Cytotoxicity assay by lactate dehydrogenase (LDH) leakage in hADSCs
# Type: cell-based
# CONDITION NOTES: 10 μM, % of total cell toxicity
MEASUREMENT NAME: Cell cytotoxicity (3 days, LDH) (%)
One number for each entry, in %.

COc1ccc(-c2cnoc2-c2ccc(OC(C)C)cc2OCCCCCCCN2CCOCC2)cc1 :: 12

Look at each compound and report its Cell cytotoxicity (3 days, LDH).
1. COc1ccc(-c2cnoc2-c2ccc(OC(C)C)cc2OCCCCN2CCCC2)cc1
2. COc1ccc(-c2cnoc2-c2ccc(OC(C)C)cc2OCCCCCCCN2CCCC2)cc1
3. COc1ccc(-c2cnoc2-c2ccc(OC(C)C)cc2OCCCCN2CCCCC2)cc1
4. CC(C)Oc1ccc2c(=O)c(-c3ccccc3)coc2c1 [Ipriflavone, reference compound]
5. COc1ccc(-c2cnoc2-c2ccc(OC(C)C)cc2OCCCCCCN2CCCC2)cc1
6. COc1ccc(-c2cnoc2-c2ccc(OC(C)C)cc2OCCCCN2CCOCC2)cc1
7. COc1ccc(-c2cnoc2-c2ccc(OC(C)C)cc2OCCCCCCN2CCCCC2)cc1
8. COc1ccc(-c2cnoc2-c2ccc(OC(C)C)cc2O)cc1

Completion:
1. 0
2. 0
3. 0
4. 0
5. 0
6. 13
7. 0
8. 68
